Reference for the values: patent US20240368668A1

- system_name: mouse ADAMTS7 (Mus musculus, UniProt Q68SA9, E373Q)
- Construct: Full-length mouse Adamts7 1-1857 (Uniprot Q68SA9, WT or E373Q catalytic mutant); expressed in transfected cells; host or cells: Human Coronary Artery Smooth Muscle Cells (HCA-SMC, Lonza), adenovirus 50 MOI
- Sequence (Q68SA9 221-1657 E373Q): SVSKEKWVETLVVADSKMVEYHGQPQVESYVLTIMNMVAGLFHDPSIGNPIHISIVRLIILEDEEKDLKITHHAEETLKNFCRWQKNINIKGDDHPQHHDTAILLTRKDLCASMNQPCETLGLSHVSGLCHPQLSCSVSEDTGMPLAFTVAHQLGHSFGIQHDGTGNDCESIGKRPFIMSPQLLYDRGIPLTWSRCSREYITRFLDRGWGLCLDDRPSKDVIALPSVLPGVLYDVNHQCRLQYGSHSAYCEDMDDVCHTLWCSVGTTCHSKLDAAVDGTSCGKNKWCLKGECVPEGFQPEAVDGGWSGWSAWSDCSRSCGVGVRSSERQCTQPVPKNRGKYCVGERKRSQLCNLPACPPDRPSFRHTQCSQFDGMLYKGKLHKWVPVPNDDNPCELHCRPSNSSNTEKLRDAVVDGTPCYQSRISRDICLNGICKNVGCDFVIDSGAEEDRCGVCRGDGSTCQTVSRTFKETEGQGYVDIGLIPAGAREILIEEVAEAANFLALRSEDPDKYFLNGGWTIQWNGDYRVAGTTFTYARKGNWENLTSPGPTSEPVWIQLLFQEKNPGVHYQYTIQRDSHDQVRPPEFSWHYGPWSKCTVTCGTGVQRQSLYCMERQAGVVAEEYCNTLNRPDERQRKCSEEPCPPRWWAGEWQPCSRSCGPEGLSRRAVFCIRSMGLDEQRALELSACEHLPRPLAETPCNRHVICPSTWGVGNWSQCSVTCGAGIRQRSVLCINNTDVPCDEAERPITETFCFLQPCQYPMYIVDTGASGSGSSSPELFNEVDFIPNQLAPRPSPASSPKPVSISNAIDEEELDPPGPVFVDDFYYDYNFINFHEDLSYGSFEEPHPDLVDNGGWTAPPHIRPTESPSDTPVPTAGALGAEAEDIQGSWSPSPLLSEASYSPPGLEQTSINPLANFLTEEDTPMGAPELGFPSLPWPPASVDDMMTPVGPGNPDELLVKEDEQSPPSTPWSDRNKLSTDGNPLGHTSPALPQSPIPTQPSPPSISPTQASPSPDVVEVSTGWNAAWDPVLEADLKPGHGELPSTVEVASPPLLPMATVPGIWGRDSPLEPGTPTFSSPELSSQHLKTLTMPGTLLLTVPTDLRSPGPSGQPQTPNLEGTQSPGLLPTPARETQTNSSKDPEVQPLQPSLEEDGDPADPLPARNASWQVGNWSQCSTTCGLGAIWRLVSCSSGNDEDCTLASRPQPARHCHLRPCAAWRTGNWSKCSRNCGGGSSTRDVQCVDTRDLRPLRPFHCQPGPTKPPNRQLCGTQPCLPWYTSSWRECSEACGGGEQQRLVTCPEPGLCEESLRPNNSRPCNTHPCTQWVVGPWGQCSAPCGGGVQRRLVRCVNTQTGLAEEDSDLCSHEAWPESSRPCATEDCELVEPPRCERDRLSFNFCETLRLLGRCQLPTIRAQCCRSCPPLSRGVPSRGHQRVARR
- test_protocol: TMT10 TAILS N-terminomics, SMC1 experiment (Ad-mADAMTS7 WT vs EQ vs Luc, technical replicates, trypsin digest)
- Assay type: cell-based
- particulars: TAILS neo-N-terminal peptide abundance; log fold change, Ad-mADAMTS7 EQ over Luc
experimental_endpoint: logFC.mEQ.over.Luc
Answer with the value's number alone.

*Q* Need logFC.mEQ.over.Luc, item IGFBP7_101 (AAGGPGVSGVCVCKSR; listed as Homo sapiens)
*A* 0.29

*Q* Check FN1_2217 (FQDTSEYIISCHPVGTDEEPLQFR; listed as Homo sapiens) too.
*A* 0.14

Further cases:
*Q* Which logFC.mEQ.over.Luc reading was recorded for the substance ECM1_134 (FGDQSHPEPESWNAAQHCQQDR; listed as Homo sapiens) ?
*A* 0.28

*Q* Queued: APLP2_579 (ISETPVDVR; listed as Homo sapiens)
*A* 0.27
